meta.source: patent US4110327A

# Tested on: Staphylococcus aureus
# Procedure Text: MIC against clinical isolates
# Assay type: cell-based
# Experimental Conditions: clinical isolate F-2; unit assumed
Measured MIC, listed per entry for reference.
Assay Endpoint: MIC (µg/mL)

INSERT INTO measurements (compound, assay_endpoint, unit_of_measure, result_operator, measured_value) VALUES
  ('CC1(C)S[C@@H]2[C@H](NC(=O)[C@H](N)c3ccccc3)C(=O)N2[C@H]1C(=O)O [Sodium Ampicillin, SodiumAmpicillin, reference compound]', 'MIC', 'µg/mL', '=', 0.79),
  ('Cc1nnc(SCC2=C(C(=O)O)N3C(=O)[C@@H](NC(=O)Cn4cnnn4)[C@H]3SC2)s1 [Sodium Cephazolin, SodiumCephazolin, reference compound]', 'MIC', 'µg/mL', '<', 0.4),
  ('O=C(Cc1cccs1)N[C@@H]1C(=O)N2C(C(=O)[O-])=C(C[n+]3ccccc3)CS[C@H]12 [Cephalorizine, reference compound]', 'MIC', 'µg/mL', '<', 0.4),
  ('CN1CCN(C(=O)N[C@@H](C(=O)N[C@@H]2C(=O)N3[C@@H]2SC(C)(C)[C@@H]3C(=O)O)c2ccccc2)C(=O)C1=O (single isomer, unassigned)', 'MIC', 'µg/mL', '=', 1.57),
  ('CC(=O)OCC1=C(C(=O)O)N2C(=O)[C@@H](NC(=O)Cc3cccs3)[C@H]2SC1 [Sodium Cephalothin, SodiumCephalothin, reference compound]', 'MIC', 'µg/mL', '<', 0.4),
  ('CCN1CCN(C(=O)N[C@@H](C(=O)N[C@@H]2C(=O)N3[C@@H]2SC(C)(C)[C@@H]3C(=O)O)c2ccccc2)C(=O)C1=O', 'MIC', 'µg/mL', '=', 3.13);

====

# Test system: Staphylococcus aureus
# Procedure Text: MIC against clinical isolates
# Format: cell-based
# Experimental Conditions: clinical isolate MS 8588; unit assumed
Measured MIC, listed per entry for reference.
Assay Endpoint: MIC (µg/mL)

INSERT INTO results (molecule, unit_of_measure, measured_value) VALUES
  ('CC(=O)OCC1=C(C(=O)O)N2C(=O)C(NC(=O)C(NC(=O)N3CCN(C)C(=O)C3=O)c3ccccc3)C2SC1 (single isomer, unassigned)', 'µg/mL', 1.56),
  ('CN1CCN(C(=O)NC(C(=O)NC2C(=O)N3C(C(=O)O)=C(CSc4nnnn4C)CSC23)c2ccccc2)C(=O)C1=O (single isomer, unassigned)', 'µg/mL', 1.56),
  ('CCCCCN1CCN(C(=O)N[C@@H](C(=O)N[C@@H]2C(=O)N3[C@@H]2SC(C)(C)[C@@H]3C(=O)O)c2ccccc2)C(=O)C1=O (single isomer, unassigned)', 'µg/mL', 3.13);

====

# Test system: Pseudomonas aeruginosa
# Procedure Text: MIC against clinical isolates
# Format: cell-based
# Experimental Conditions: clinical isolate S-2; unit assumed
Assay Endpoint: MIC (µg/mL)

INSERT INTO assay_data (molecule, unit_of_measure, result_operator, measured_value) VALUES
  ('Cc1nnc(SCC2=C(C(=O)O)N3C(=O)[C@@H](NC(=O)Cn4cnnn4)[C@H]3SC2)s1 [Sodium Cephazolin, SodiumCephazolin, reference compound]', 'µg/mL', '>', 200),
  ('CC(=O)OCC1=C(C(=O)O)N2C(=O)[C@@H](NC(=O)[C@H](N)c3ccccc3)[C@H]2SC1 [Sodium Cephaloglycin, SodiumCephaloglycin, reference compound]', 'µg/mL', '>', 200),
  ('CCCCCCCCN1CCN(C(=O)N[C@@H](C(=O)N[C@@H]2C(=O)N3[C@@H]2SC(C)(C)[C@@H]3C(=O)O)c2ccccc2)C(=O)C1 [compound 16]', 'µg/mL', '=', 25),
  ('O=C(Cc1cccs1)N[C@@H]1C(=O)N2C(C(=O)[O-])=C(C[n+]3ccccc3)CS[C@H]12 [Cephalorizine, reference compound]', 'µg/mL', '>', 200),
  ('CC1(C)S[C@@H]2[C@H](NC(=O)C(C(=O)O)c3ccccc3)C(=O)N2[C@H]1C(=O)O (some centres unmarked) [Sodium Carbenicillin, SodiumCarbenicillin, reference compound]', 'µg/mL', '=', 200);
